Origin of the recorded values: PubChem BioAssay (NCI)

- Tested on: KM12 colon
- Experiment notes: NCI tumour cell line growth inhibition, 48 h
Each entry below carries its recorded TGI.

Incoming: Suppose we examine the compound `CC1=Nn2c(nc3sc4c(c3c2=O)CCCC4)SC1` ; what TGI value has been reported?
Outgoing: > 100 µM

Incoming: Also `NNC(=O)c1ccccc1NC(=O)/C(=C/c1ccccc1)NC(=O)c1ccccc1` , if possible.
Outgoing: > 100 µM

Incoming: Also `Nc1ccc2c(c1)[O][Sn]([c]1ccccc1)([c]1ccccc1)[O]C2=O` , if possible.
Outgoing: 33.5 µM

Incoming: Also `CO[P@]1(=O)O[C@@H](c2ccccc2)[C@H](O)[C@]1(O)c1ccccc1` , if possible.
Outgoing: > 100 µM

Incoming: Also OC1CCC(C2C3CCCCC3C3CCCCC3C2C2CCC(O)CC2)CC1 (stereo unspecified) , if possible.
Outgoing: 15.5 µM

Incoming: Also `C=C[C@H]1CN2CC[C@H]1C[C@@H]2[C@@H](O)c1ccnc2ccccc12` , if possible.
Outgoing: > 100 µM

Incoming: Also CCCCCCCCCCCC(=O)C1=C(O)C(O)CCC1=O (stereo unspecified) , if possible.
Outgoing: 43.2 µM

Incoming: Also `CSc1n[n+](C)cc(N)c1N` , if possible.
Outgoing: > 100 µM

Incoming: Also `Cc1ccc(-n2c(C)nc3c2C(=O)c2ccccc2C3=O)cc1` , if possible.
Outgoing: > 100 µM

Incoming: Also CC1(C)C2CCC1C(=O)C(C=O)C2 (stereo unspecified) , if possible.
Outgoing: > 100 µM

Incoming: Also `Cc1ccc(-c2cc3nc(-c4ccccc4)nc(C(Cl)Cl)n3n2)cc1` , if possible.
Outgoing: 1.96 µM

---

For reference, GI50 measured on HOP-18 NSCLC:

Recorded results for 2 compounds are shown here.
[Cl][Sn]([c]1ccccc1)[c]1ccccc1 : 3.27 µM
Nc1ccc2c(c1)[O][Sn]([c]1ccccc1)([c]1ccccc1)[O]C2=O : 15.6 µM

Incoming: Suppose we examine the compound `Cc1c2cc[n+](C)cc2c(C)c2c1[nH]c1ccccc12` ; what GI50 value has been reported?
Outgoing: 5.47 µM

Incoming: Also `CC(C)(C)C([O-])=C1C(=O)c2ccccc2C1=O.CC(C)(C)C([O-])=C1C(=O)c2ccccc2C1=O.CC[O-].CC[O-].[Ti+4]` , if possible.
Outgoing: 18.2 µM

---

- Test system: EKVX NSCLC
- Experiment notes: NCI tumour cell line growth inhibition, 48 h
Endpoint: TGI

Recorded results for 10 compounds are shown here.
O=C1CC(O)c2c(Cl)sc(Cl)c21 (stereo not drawn) : 37.2 µM
COC(=O)c1ccc2c(c1)c1c(C)c3cnccc3c(C)c1n2C : 0.623 µM
COC(=O)c1c(O)ccc2c1c1c(n2C)C(=O)c2ccccc2C1=O : > 100 µM
O=C1NC(=O)C(c2ccccc2Cl)=C1Nc1cccc(O)c1 : > 25 µM
O=C(N/N=C/c1ccc(F)cc1)c1[nH]c2ccc(I)cc2c1-c1ccccc1 : > 26.9 µM
C/C(=N/O)c1cccc(Nc2nc3ccccc3c3[nH]c4ccccc4c23)c1 : 7.38 µM
O=[N+]([O-])C(=C(NCc1ccccc1)NCc1ccccc1)C(Cl)=C(Cl)Cl : > 100 µM
CCN(CC)C(=O)CCCCCCCCC1CO1 (stereo not drawn) : > 100 µM
CSc1n[n+](C)cc(N)c1N : > 100 µM
C=C1C(O)C2C(=C(CC(C)C)C13CC3)C(=O)C(C)(C)C2OC (stereo not drawn) : > 100 µM

Incoming: Suppose we examine the compound CCCCCCCCCC[C@@H](O)[C@@H]1CC[C@@H]([C@@H]2CC[C@@H]([C@@H](O)CCCCCCCCCCC(O)CC3=CC(C)OC3=O)O2)O1 (stereo partly drawn) ; what TGI value has been reported?
Outgoing: > 10 µM

---

Each entry below carries its recorded TGI.
- Test system: SNB-78 CNS
- Experiment notes: NCI tumour cell line growth inhibition, 48 h

Recorded results for 8 compounds are shown here.
CC1=C(N2CC2)C(=O)c2nc3n(c2C1=O)CCC3O (stereo unspecified) : 0.131 µM
CC1(C)OC2C(=O)OC(COCc3ccccc3)C2O1 (stereo unspecified) : > 100 µM
CC1=C2N3C[C@@H](n4c(=O)n(C)c(=O)n43)C23CCC1n1c(=O)n(C)c(=O)n13 : > 100 µM
CC(C)(C)C([O-])=C1C(=O)c2ccccc2C1=O.CC(C)(C)C([O-])=C1C(=O)c2ccccc2C1=O.CC[O-].CC[O-].[Ti+4] : 93.8 µM
CC(C)(C)N=CN1CCC(C(c2ccccc2)c2ccccc2)CC1 : > 100 µM
Cc1ccc(-n2c(C)nc3c2C(=O)c2ccccc2C3=O)cc1 : > 100 µM
CCOC(OC1=C(C#N)CCC1)C(CC)[Se]c1ccccc1 (stereo unspecified) : > 100 µM
[Cl][Sn]([c]1ccccc1)[c]1ccccc1 : 31 µM

In the following, a different compound is considered.
Incoming: Suppose we examine the compound Nc1nc(N)c2ncn(CC(CO)CC(c3ccccc3)P(=O)(O)O)c2n1 (stereo unspecified) ; what TGI value has been reported?
Outgoing: > 100 µM

---

- Test system: SR leukemia
// one of 1.0 = active, 0.0 = inactive, no free text

COC(=O)c1ccc2c(c1)c1c(C)c3cnccc3c(C)c1n2C : 1.0
CCCCS(=N)(=O)CC[C@H](N)C(=O)O (stereo not given in full) : 0.0
O=C(Nc1ccc(Br)cc1)c1cc(Br)cc(Br)c1O : 0.0
O=[N+]([O-])/C=C\c1ccc2c(c1)OCO2 : 0.0
NS(=O)(=O)c1ccc(/C=C/c2cccc(O)c2)cc1 : 0.0

Incoming: I'd appreciate the recorded outcome for C=C1C(O)C2C(=C(CC(C)C)C13CC3)C(=O)C(C)(C)C2OC (stereo not given) from this test.
Outgoing: 0.0

Incoming: Also `Cc1ccc2c(c1)sc(-c1ccc(N(C)C)cc1)[n+]2C` , if possible.
Outgoing: 1.0

Incoming: Also `CCN(CC)C(=S)SSC1CCCCC1` , if possible.
Outgoing: 1.0

Incoming: Also `CCOC(=O)/C(C1=CC(=O)C(=O)c2ccccc21)=C(/C)NCc1ccccc1` , if possible.
Outgoing: 1.0

Incoming: Also OCC1OC(N2C=C(c3nc4ccccc4s3)C3C=CC=CC32)C(O)C1O (stereo not given) , if possible.
Outgoing: 0.0

---

- Test system: KM12 colon
- Experiment notes: NCI tumour cell line growth inhibition, 48 h
Each entry below carries its recorded TGI.
Answer with a number only, understood to be in µM.

Incoming: Suppose we examine the compound COC1CCC(OC2CC(C3(C)CCC4(CC(O)C(C)C(C(C)/C=C(\C)C(=O)C(C)CC(C)C(=O)O)O4)O3)OC3(OC(C4OC(O)(CO)C(C)CC4C)CC3C)C2C)OC1C (stereo not drawn) ; what TGI value has been reported?
Outgoing: 1.31

Incoming: Also `CC1(C)C(=O)/C(=C\c2ccco2)C[C@]2(C)[C@H]3CC=C4[C@@H]5C[C@](C)(C(=O)O)CC[C@]5(C)CC[C@@]4(C)[C@]3(C)CC[C@@H]12` , if possible.
Outgoing: 19.5

Incoming: Also `COc1cccc2c(=O)c3c(sc12)c(NCCCN)nc1ccccc13` , if possible.
Outgoing: 3.21

Incoming: Also `Cc1ccc2c(c1)sc(-c1ccc(N(C)C)cc1)[n+]2C` , if possible.
Outgoing: 14.6

---

- Test system: OVCAR-8 ovarian
- Experiment notes: NCI tumour cell line growth inhibition, 48 h
Endpoint: TGI

COC(=O)CC1C2CC3C(C2=O)C13 (stereo unspecified) : > 100 µM
COc1cc2ccc3c4cc(OC)c(OCc5ccccc5)cc4cnc3c2cc1OC : > 100 µM
CN(C)CCNC(=O)c1cc([N+](=O)[O-])cc2ccc(-c3ccccc3)nc12 : > 39.2 µM
COc1ccc2c(C3(O)CCNCC3)c[nH]c2c1 : > 100 µM
COc1ccc2c(c1)CC[C@@H]1[C@@H]2CC[C@]2(C)/C(=N/OCCN3CCCCC3)CC[C@@H]12 : 23.1 µM

In the following, a different molecule is considered.
Incoming: Notebook entry, OVCAR-8 ovarian assay: TGI of O=C1CC(c2cccc(Cl)c2)n2cccc21 (stereo unspecified) = ?
Outgoing: > 100 µM

---

- System: HCT-15 colon
- Experiment notes: NCI tumour cell line growth inhibition, 48 h
Each entry below carries its recorded TGI.

C=C1CCCCCCCCCCC1S(=O)c1ccccc1 (stereo unspecified) : > 100 µM
CN(C)CCCOC(=O)C(O)(Cc1ccccc1)C1CC1 (stereo unspecified) : > 100 µM
C=C(Br)CN(C#N)CC(=C)Br : > 100 µM
COc1nc2c(c(=O)n1C)N[C@@H]1[C@@H](O)[C@H](O)CO[C@@H]1N2 : > 100 µM
Cc1c2ncccc2c(C)c2c1[nH]c1ccccc12 : 54.3 µM

In the following, a different compound is considered.
Incoming: Suppose we examine the compound `Cc1nnc2c3c(-c4ccccc4)c(-c4ccccc4)oc3nc(N(C)C)n12` ; what TGI value has been reported?
Outgoing: > 100 µM
